- Test system: RIVA
- method: growth inhibition by drug plus 177Lu-lilotomab satetraxetan (1 - RLU/untreated control) (fraction); higher = stronger inhibition
- settings: 100 nM; time (day): 3; 177Lu-lilotomab satetraxetan 0.5 ug/ml
parameter: growth inhibition by drug plus 177Lu-lilotomab satetraxetan
Output: the number by itself.

Below: 2 molecules and their reported growth inhibition by drug plus 177Lu-lilotomab satetraxetan.
CCc1ccc(CCOc2ccc(CC3SC(=O)NC3=O)cc2)nc1 (stereo not given); 0.416
O=C(O)CC[C@H]1CC[C@@](c2cc(F)ccc2F)(S(=O)(=O)c2ccc(Cl)cc2)CC1; 0.453

What measured growth inhibition by drug plus 177Lu-lilotomab satetraxetan goes with CC1=C(/C=C/C(C)=C/C=C/C(C)=C/C(=O)Nc2ccc(O)cc2)C(C)(C)CCC1 [Fenretinide] ?
0.435

Next molecule: `COC(=O)Nc1ccc(-c2nc(N3CCOCC3)c3cnn(C4CCN(C(=O)OC)CC4)c3n2)cc1`
0.468

Next molecule: `Cc1ccc(NC(=O)c2ccc(CN3CCN(C)CC3)cc2)cc1Nc1nccc(-c2cccnc2)n1`
0.301

// provenance: the supplement of paper PMC6897291
